System: Pseudomonas aeruginosa
assay-protocol: MIC, test tube serial dilution, Pseudomonas aeruginosa
Assay type: cell-based
run-conditions: strain Bonn; 24 hours, 37°C
measured-quantity: log10(MIC) (log10 of the value in U/ml)
Response schema: value (number) is log10 of MIC in units of U/ml.

compound	log10(MIC)
CC(C)OC(=O)N1CCN(C(=O)N[C@@H](C(=O)N[C@@H]2C(=O)N3[C@@H]2SC(C)(C)[C@@H]3C(=O)O)c2ccccc2)C1=O	1.20
CC1(C)S[C@@H]2[C@H](NC(=O)[C@H](NC(=O)N3CCN(C(=O)Nc4ccccc4)C3=O)c3ccccc3)C(=O)N2[C@H]1C(=O)O	1.81
CNC(=O)N1CCN(C(=O)N[C@@H](C(=O)N[C@@H]2C(=O)N3[C@@H]2SC(C)(C)[C@@H]3C(=O)O)c2ccccc2)C1=O	1.70
CN(C)C(=O)N1CCN(C(=O)N[C@@H](C(=O)N[C@@H]2C(=O)N3[C@@H]2SC(C)(C)[C@@H]3C(=O)O)c2ccccc2)C1=O	1.51
CC1(C)S[C@@H]2[C@H](NC(=O)[C@H](N)c3ccccc3)C(=O)N2[C@H]1C(=O)O [Ampicillin, α-aminobenzylpenicillin, reference compound]	2.30

Now, please, on to the next compound.
IN: Could you tell me which log10(MIC) is on file for `CC1(C)S[C@@H]2[C@H](NC(=O)[C@H](NC(=O)N3CCN(C(=O)OC4CCCCC4)C3=O)c3ccccc3)C(=O)N2[C@H]1C(=O)O` ?
OUT: 1.20

###

Test system: Staphylococcus aureus
assay-protocol: MIC, test tube serial dilution, Staphylococcus aureus
Type: cell-based
run-conditions: Table 3; strain 133
measured-quantity: MIC (U/ml)
Numbers only; they are read as U/ml.

Consider the worked cases shown below.
molecule	target	MIC [U/ml]
CC(=O)N1CCN(C(=O)NC(C(=O)N[C@@H]2C(=O)N3[C@@H]2SC(C)(C)[C@@H]3C(=O)O)c2cccs2)C1=O (stereo partly drawn) [Penicillin No. 9 (Table 3)]	Staphylococcus aureus	2
CC1(C)S[C@@H]2[C@H](NC(=O)C(NC(=O)N3CCN(S(C)(=O)=O)C3=O)c3c(Cl)cccc3Cl)C(=O)N2[C@H]1C(=O)O (stereo partly drawn) [Penicillin No. 5 (Table 3)]	Staphylococcus aureus	4

IN: Looking for the measured MIC of CC(=O)N1CCN(C(=O)N[C@H](C(=O)N[C@@H]2C(=O)N3[C@@H]2SC(C)(C)[C@@H]3C(=O)O)c2ccccc2)C1=O [Penicillin No. 6 (Table 3)] , can you help?
OUT: 2

IN: Which MIC value is on record for CCS(=O)(=O)N1CCN(C(=O)NC(C(=O)N[C@@H]2C(=O)N3[C@@H]2SC(C)(C)[C@@H]3C(=O)O)c2ccc(Cl)cc2)C1=O (stereo partly drawn) [Penicillin No. 13 (Table 3)] ?
OUT: 4

IN: I am curious: what MIC value has been reported for CC(=O)N1CCN(C(=O)NC(C(=O)N[C@@H]2C(=O)N3[C@@H]2SC(C)(C)[C@@H]3C(=O)O)c2c(Cl)cccc2Cl)C1=O (stereo partly drawn) [Penicillin No. 10 (Table 3)] ?
OUT: 16

IN: What value of measured MIC is listed for CCS(=O)(=O)N1CCN(C(=O)N[C@@H](C(=O)N[C@@H]2C(=O)N3[C@@H]2SC(C)(C)[C@@H]3C(=O)O)c2ccccc2)C1=O [Penicillin No. 11 (Table 3)] ?
OUT: 2

Data provenance is patent US3983105A.
